- measured-target: TrkB (Homo sapiens (Human), UniProt Q16620 32-430)
- Sequence (Q16620 32-430 limits assumed): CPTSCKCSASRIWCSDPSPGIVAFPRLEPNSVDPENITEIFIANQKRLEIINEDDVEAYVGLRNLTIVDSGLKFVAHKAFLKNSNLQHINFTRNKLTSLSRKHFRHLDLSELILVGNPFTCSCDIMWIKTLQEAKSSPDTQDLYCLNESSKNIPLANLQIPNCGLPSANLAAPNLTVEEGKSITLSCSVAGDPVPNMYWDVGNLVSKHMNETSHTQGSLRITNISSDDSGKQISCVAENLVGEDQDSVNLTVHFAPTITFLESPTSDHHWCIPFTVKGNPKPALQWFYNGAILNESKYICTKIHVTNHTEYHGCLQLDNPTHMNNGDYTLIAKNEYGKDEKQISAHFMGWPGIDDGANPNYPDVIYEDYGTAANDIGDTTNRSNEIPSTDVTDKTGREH
- experiment-notes: koff of Fab at 25 C; T1/2=Log2/koff
Decision: T1/2 >= 2 min yields yes, all other cases yield no.

Is reported T1/2 greater than or equal to 2 min here: 5-D1 (Fab, V domains shown, Fab) VH: QVQLVQSGAEVKKPGASVKVSCKASGYTFTNYVILWVRQAPGQGLEWMGYINPYNDGTKYNEKFKGRVTMTRDTSTSTVYMELSSLRSEDTAVYYCARLLKYRRFRYYAIDVWGQGTTVTVSS VL: DIQMTQSPSSLSASVGDRVTITCRASENVYSNLAWYQQKPGKAPKLLIYAASNLQSGVPSRFSGSGSGTDFTFTISSLQPEDIATYYCQNFWYSPFTFGQGTKLEIK no

In plain terms: is recorded T1/2 at least 2 min for 2-G12 (Fab, V domains shown, Fab) VH: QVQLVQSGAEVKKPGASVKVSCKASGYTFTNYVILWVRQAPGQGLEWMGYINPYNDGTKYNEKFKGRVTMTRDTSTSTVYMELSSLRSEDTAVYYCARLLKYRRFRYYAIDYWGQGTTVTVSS VL: DIQMTQSPSSLSASVGDRVTITCRASENVYSNLAWYQQKPGKAPKLLIYAASNLQSGVPSRFSGSGSGTDFTFTISSLQPEDIATYYCQHFWYRPFTFGQGTKLEIK ? no

Assess whether reported T1/2 for 15-H1 (Fab, V domains shown, Fab) VH: QVQLVQSGAEVKKPGASVKVSCKASGYTFTNYDIIWVRQAPGQGLEWMGYINPYNDGTKYNEKFKGRVTMTRDTSTSTVYMELSSLRSEDTAVYYCARLLKYACFREEAIDYWGQGTTVTVSS VL: DIQMTQSPSSLSASVGDRVTITCRASENVYSNLAWYQQKPGKAPKLLIYAASNLQSGVPSRFSGSGSGTDFTFTISSLQPEDIATYYCQHFWESPFTFGQGTKLEIK sits at 2 min or higher. yes

For this binder, is measured T1/2 2 min or higher? 4B12-25 (Fab, V domains shown, Fab) VH: QVQLVQSGAEVKKPGASVKVSCKASGYTFTNYDIIWVRQAPGQGLEWMGYINPYNGRREYNEKFKGRVTMTRDTSTSTVYMELSSLRSEDTAVYYCARLLRYRRFRYYAIDYWGQGTTVTVSS VL: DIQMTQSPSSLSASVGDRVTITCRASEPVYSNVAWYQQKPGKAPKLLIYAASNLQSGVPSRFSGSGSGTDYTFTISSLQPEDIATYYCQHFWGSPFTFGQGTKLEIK no

Reported T1/2 reaches at least 2 min for 12-E5 (Fab, V domains shown, Fab) VH: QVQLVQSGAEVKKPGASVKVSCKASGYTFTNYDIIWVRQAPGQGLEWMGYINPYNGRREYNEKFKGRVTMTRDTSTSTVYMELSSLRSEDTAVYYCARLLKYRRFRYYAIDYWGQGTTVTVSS VL: DIQMTQSPSSLSASVGDRVTITCRASEPVYSNLAWYQQKPGKAPKLLIYAASNLQSGVPSRFSGSGSGTDFTFTISSLQPEDIATYYCQHFWGSPFTFGQGTKLEIK ? yes
